Tested on: haemagglutinin on whole H9N2 virus (Influenza A virus H9N2 (avian; strain not given in material))
test_name: capillary electrophoresis
pKd: −log10 of the molar value.
reported_property: pKd

{"biopolymer_sequence": "GCTGCAATACTCATGGACAGCCTCCTGGGGTCAGGCTCAGACATTGATAAAGCGACATCGGTCTGGAGTACGACCCTGAA [A9]", "quantitative_result": 7.37}
